Reference source: paper PMC3275588

System: HCV replicon cells
Assay: Calcein AM intracellular esterase activity (cell viability)
Conditions: read-out: CC50 Calcein; intracellular esterase activity, three day assay
measured_attribute: CC50

Looking for the measured CC50 of "C=CCNC1=C2C[C@@H](C)C[C@H](OC)[C@H](O)[C@@H](C)/C=C(\C)[C@H](OC(N)=O)[C@@H](OC)/C=C\C=C(/C)C(=O)NC(=CC1=O)C2=O" , can you help?
21 µM

----------
Experiment: CellTiter-Glo intracellular ATP (cell viability)
measured_attribute: CC50 at 3 days (nM)
Supply the numeric figure in nM, leaving out any unit text.

Looking for the measured CC50 at 3 days of "COc1cc2c(c(OC)c1OC)-c1ccc(OC)c(=O)cc1[C@@H](NC(C)=O)CC2" , can you help?
16

Looking for the measured CC50 at 3 days of "Nc1ccn([C@@H]2O[C@H](CO)[C@@H](O)C2(F)F)c(=O)n1" , can you help?
6

Looking for the measured CC50 at 3 days of "COc1ccc(C[C@H](N)C(=O)N[C@H]2[C@@H](O)[C@H](n3cnc4c(N(C)C)ncnc43)O[C@@H]2CO)cc1" , can you help?
516
